B1: BTBD10 (parent)
chain: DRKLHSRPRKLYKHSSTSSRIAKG

# Variants of: B1
# Assay Notes: protein stability index of a GFP-peptide fusion (GPS, HEK-293T) (PSI 1-6); higher = more stable;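 also: lentivirally expressed fusions sorted by FACS into six bins by GFP to DsRed ratio, PSI derived from sequencing read proportions per bin multiplied by bin number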
# Condition Details: c terminus: a fixed tail appended
Parameter Measured: protein stability index
API note: the answer field is a bare number with no unit suffix.

Using the record for P8E , report its protein stability index.
4.08

Field request: protein stability index | item: D1C
3.94

Need protein stability index, item K13T
4

I am curious: what protein stability index value has been reported for P8K ?
3.67

Query (variant): S16W ; field requested: protein stability index
3.25

These data points were gathered from the supplement of paper PMC10567573.
